Test system: U2OS
METHOD_DESCRIPTION: Multiplex assay against U2OS
Type: toxicity, cell-based
CONDITION_DESCRIPTION: human, 12 h, 1 µM, compound concentration 1 uM, replicate 1
Provide the reported Population Pyknosed Nuclei (%) of each item.
Answers are plain numbers, in %.

Hey, quick one: what's Population Pyknosed Nuclei (%) for each of these?
1. COc1cc(NC(=O)CCN2CCC(OC(=O)Nc3ccccc3-c3ccccc3)CC2)c(Cl)cc1CNC[C@H](O)c1ccc(O)c2[nH]c(=O)ccc12 [BATEFENTEROL]
2. CCCn1c(=O)c2[nH]c(C3CCCC3)nc2n(CCC)c1=O
3. O=C(NCCO)c1cccc(-c2cc(Nc3ccc(OC(F)(F)F)cc3)ncn2)c1

Key:
[21, 9, 13]

Hey, quick one: what's Population Pyknosed Nuclei (%) for each of these?
1. Cl.Clc1ccc2nsnc2c1NC1=NCCN1 [TIZANIDINE HYDROCHLORIDE]
2. CN(C)CCCc1cc(C(=O)Nc2ccc(-c3ccncc3)cc2)ccc1O.Cl.Cl
3. CN1CCN2c3ncccc3Cc3ccccc3C2C1 (centres undefined) [MIRTAZAPINE]
4. O=C(O)Cc1ccccc1Nc1c(Cl)cccc1Cl [DICLOFENAC]

Key:
1: 5; 2: 9; 3: 11; 4: 6

Hey, quick one: what's Population Pyknosed Nuclei (%) for each of these?
1. CC1(COc2ccc3c(c2)ncn3-c2ccc3cccc(N4CCC(N)CC4)c3n2)COC1 [CRENOLANIB]
2. Cc1nc2ccc(Oc3ccc(F)cc3)cc2c(=O)n1C[C@H]1CCCN(C(C)C)C1.Cl

Key:
1. 13
2. 10
